Source: patent US10357493B2

# protocol summary: Mouse Pharmacokinetics, oral single dose
# Type: in vivo, male Swiss Albino mice
# applied conditions: male, Swiss Albino, plasma, 5 mg/kg, formulation by footnote: a 20% CremEL in H20, b 1% CMC in water, c 2% DMSO, 0.2% Tween80, 97.8% of 1% CMC
assay endpoint: half-life (h)

{"compound": "CS(=O)(=O)NCC(Nc1ncc(-c2nnc(C(F)F)o2)cn1)c1ccc(F)cc1F (single isomer, unassigned) [103(+)]", "half-life, h": 3.2}
{"compound": "CS(=O)(=O)NCC(Nc1ncc(-c2nnc(C(F)F)o2)cn1)c1ccc(F)c(F)c1 (single isomer, unassigned) [171(+)]", "half-life, h": 3.3}
{"compound": "O=C(CCCCCCNC(=O)c1cnc(N(c2ccccc2)c2ccccc2)nc1)NO [Ricolinostat, ricolinostat, reference compound]", "half-life, h": 2.7}
{"compound": "O=S(=O)(NCC(Nc1ncc(-c2nnc(C(F)F)o2)cn1)c1ccc(F)cc1)C1CC1 (stereo not drawn)", "half-life, h": 4.3}
{"compound": "O=S(=O)(NCC(Nc1ncc(-c2nnc(C(F)F)o2)cn1)c1ccc(F)cc1F)C1CC1 (stereo not drawn) [142(+)]", "half-life, h": 4.1}
{"compound": "CC(C)S(=O)(=O)NCC(Nc1ncc(-c2nnc(C(F)F)o2)cn1)c1ccc(F)cc1 (stereo not drawn)", "half-life, h": 3.4}

* * *

# system tested: HDAC6 (Homo sapiens (Human), UniProt Q9UBN7)
# Sequence (Q9UBN7 whole entry): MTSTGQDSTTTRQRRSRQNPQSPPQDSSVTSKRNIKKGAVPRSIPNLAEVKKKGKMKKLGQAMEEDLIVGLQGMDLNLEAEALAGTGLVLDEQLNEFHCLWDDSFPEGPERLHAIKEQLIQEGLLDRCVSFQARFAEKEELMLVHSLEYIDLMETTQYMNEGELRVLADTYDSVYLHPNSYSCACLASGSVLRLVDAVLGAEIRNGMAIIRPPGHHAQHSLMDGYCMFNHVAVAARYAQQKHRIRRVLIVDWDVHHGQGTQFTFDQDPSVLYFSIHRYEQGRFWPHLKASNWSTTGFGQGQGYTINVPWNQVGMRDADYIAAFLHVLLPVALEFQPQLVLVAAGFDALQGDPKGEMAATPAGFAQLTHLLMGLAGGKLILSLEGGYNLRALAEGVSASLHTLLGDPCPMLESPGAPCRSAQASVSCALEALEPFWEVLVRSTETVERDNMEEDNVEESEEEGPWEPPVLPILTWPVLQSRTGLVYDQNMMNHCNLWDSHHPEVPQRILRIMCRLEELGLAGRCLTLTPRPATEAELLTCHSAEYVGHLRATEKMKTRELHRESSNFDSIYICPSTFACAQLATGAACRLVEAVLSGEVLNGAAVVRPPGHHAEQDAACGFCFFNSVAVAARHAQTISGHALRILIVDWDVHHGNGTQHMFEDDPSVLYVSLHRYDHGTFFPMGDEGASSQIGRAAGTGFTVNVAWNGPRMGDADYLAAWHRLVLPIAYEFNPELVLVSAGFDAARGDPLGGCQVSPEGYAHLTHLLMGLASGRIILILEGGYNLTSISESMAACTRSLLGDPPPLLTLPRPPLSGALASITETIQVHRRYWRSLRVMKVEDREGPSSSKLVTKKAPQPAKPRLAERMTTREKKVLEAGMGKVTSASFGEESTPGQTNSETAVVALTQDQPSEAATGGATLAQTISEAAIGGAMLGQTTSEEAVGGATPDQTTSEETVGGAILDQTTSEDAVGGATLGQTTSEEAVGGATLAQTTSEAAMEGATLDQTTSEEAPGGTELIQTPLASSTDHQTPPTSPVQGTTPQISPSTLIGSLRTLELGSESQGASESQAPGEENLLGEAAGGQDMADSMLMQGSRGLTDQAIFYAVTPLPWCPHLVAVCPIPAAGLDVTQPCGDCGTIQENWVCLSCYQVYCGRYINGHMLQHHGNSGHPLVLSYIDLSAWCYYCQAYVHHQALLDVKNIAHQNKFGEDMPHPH
# protocol summary: HDAC6 enzymatic assay
# Format: biochemical
# applied conditions: read-out: Human HDAC6 IC50
assay endpoint: IC50 (nM)

{"compound": "O=S1(=O)CCCN1CC(Nc1ncc(-c2nnc(C(F)F)o2)cn1)c1ccc(F)cc1 (single isomer, unassigned; (-)) [120(−)]", "system tested": "HDAC6 (Homo sapiens (Human), UniProt Q9UBN7)", "measurement": 150}
{"compound": "Fc1ccc(C(Cn2cc(C(F)(F)F)cn2)Nc2ncc(-c3nnc(C(F)F)o3)cn2)cc1 (single isomer, unassigned) [176(+)]", "system tested": "HDAC6 (Homo sapiens (Human), UniProt Q9UBN7)", "measurement": 160}
{"compound": "O=S(=O)(C1CC1)N(CC(Nc1ncc(-c2nnc(C(F)F)o2)cn1)c1ccc(F)cc1)CC(F)(F)F (single isomer, unassigned) [165(+)]", "system tested": "HDAC6 (Homo sapiens (Human), UniProt Q9UBN7)", "measurement": 110}
{"compound": "CS(=O)(=O)NCC(Nc1ncc(-c2nnc(C(F)F)o2)cn1)c1ccc(F)cc1F (single isomer, unassigned) [103(−)]", "system tested": "HDAC6 (Homo sapiens (Human), UniProt Q9UBN7)", "measurement": 650}
{"compound": "CS(=O)(=O)NCC(Nc1ncc(-c2nnc(C(F)F)o2)cn1)c1ccc(Cl)cc1 (single isomer, unassigned) [173(+)]", "system tested": "HDAC6 (Homo sapiens (Human), UniProt Q9UBN7)", "measurement": 24}
{"compound": "Fc1ccc(C(CC(F)(F)F)Nc2ncc(-c3nnc(C(F)F)o3)cn2)cc1 (single isomer, unassigned; (-)) [13(−)]", "system tested": "HDAC6 (Homo sapiens (Human), UniProt Q9UBN7)", "measurement": 550}

(A) CS(=O)(=O)NCC(Nc1ncc(-c2nnc(C(F)F)o2)cn1)c1ccc(Cl)cc1 (single isomer, unassigned) [173(−)]
(B) Cc1ccc(Cl)c(C2(Nc3ncc(-c4nnc(C(F)F)o4)cn3)CC2)c1
(C) FC(F)Oc1ccc(C2(Nc3ncc(-c4nnc(C(F)F)o4)cn3)CC2)cc1
Sequence the entries by IC50, beginning with the highest number. # the answer lists labels in the order requested
A, C, B

(1) O=C(NCC(Nc1ncc(-c2nnc(C(F)F)o2)cn1)c1ccc(F)cc1)c1ccccc1 (centres unmarked)
(2) CS(=O)(=O)NCC(Nc1ncc(-c2nnc(C(F)F)o2)cn1)c1ccc(OC(F)F)cc1F (single isomer, unassigned) [116(+)]
Quick check, higher IC50 between 1 and 2 ? When you have decided, please share the label of that item.
1
(1: 76 nM, 2: 17 nM)

(a) FC(F)c1nnc(-c2cnc(NC3(c4cccc(C(F)(F)F)c4)CC3)nc2)o1
(b) COc1cccc(C2(Nc3ncc(-c4nnc(C(F)F)o4)cn3)CC2)c1
(c) Fc1ccc(C2(Nc3ncc(-c4nnc(C(F)F)o4)cn3)CCC(F)(F)CC2)cc1
Sequence the entries by IC50, beginning with the highest number. # the answer lists labels in the order requested
c, b, a
(c: 180 nM, b: 39 nM, a: 16 nM)

(a) CC(NS(C)(=O)=O)C(Nc1ncc(-c2nnc(C(F)F)o2)cn1)c1ccc(F)cc1 (single isomer, unassigned) [Example 127B]
(b) CCS(=O)(=O)NCC(Nc1ncc(-c2nnc(C(F)F)o2)cn1)c1ccc(OC(F)F)cc1F (stereo not drawn) [147(+)]
Lower value of IC50 belongs to which: a or b ? When you have decided, please share the label of that item.
b

* * *

# system tested: HDAC6 (Homo sapiens (Human), UniProt Q9UBN7)
# protocol summary: HDAC6 enzymatic assay
# Assay type: biochemical
# applied conditions: read-out: Human HDAC6 IC50
assay endpoint: IC50 (nM)

{"molecule": "CS(=O)(=O)NCc1ccc(C2(Nc3ncc(-c4nnc(C(F)F)o4)cn3)CC2)cc1 [Example 69]", "measurement": 130}
{"molecule": "CCS(=O)(=O)N(CC(Nc1ncc(-c2nnc(C(F)F)o2)cn1)c1ccc(F)cc1F)CC(F)(F)F (stereo not drawn) [141(+)]", "measurement": 130}
{"molecule": "Fc1ccc(C(COCC(F)(F)F)Nc2ncc(-c3nnc(C(F)F)o3)cn2)cc1 (single isomer, unassigned) [162(+)]", "measurement": 130}
{"molecule": "Fc1ccc(C2(Nc3ncc(-c4nnc(C(F)F)o4)cn3)CC2)c(Cl)c1 [Example 62]", "measurement": 8}
{"molecule": "Fc1ccc(C(CC(F)(F)F)Nc2ncc(-c3nnc(C(F)F)o3)cn2)c(F)c1 (single isomer, unassigned) [101(+)]", "measurement": 22}

(a) CS(=O)(=O)NCC(Nc1ncc(-c2nnc(C(F)F)o2)cn1)C1CC1 (single isomer, unassigned) [123(+)]
(b) N#Cc1cc(C2(Nc3ncc(-c4nnc(C(F)F)o4)cn3)CC2)ccn1 [Example 83]
(c) CC(Nc1ncc(-c2nnc(C(F)F)o2)cn1)c1ccc(F)cc1 (single isomer, unassigned; (+)) [20(+)]
(d) CC(C)S(=O)(=O)NCC(Nc1ncc(-c2nnc(C(F)F)o2)cn1)c1ccc(F)cc1 (centres unmarked) [Example 109]
Sequence the entries by IC50, beginning with the highest number. # the answer lists labels in the order requested
a, b, d, c
(a: 1100 nM, b: 160 nM, d: 37 nM, c: 21 nM)

* * *

# system tested: HDAC6 (Homo sapiens (Human))
# protocol summary: HDAC6 enzymatic assay
# Assay type: biochemical
# applied conditions: read-out: Human HDAC6 IC50
assay endpoint: IC50 (µM)

{"compound": "Fc1cc(OC(F)(F)F)ccc1C1(Nc2ncc(-c3nnc(C(F)F)o3)cn2)CC1 [Example 70]", "IC50 (µM)": 0.1}
{"compound": "NCC(Nc1ncc(-c2nnc(C(F)F)o2)cn1)c1ccc(F)cc1 (stereo not shown) [Example 96]", "IC50 (µM)": 0.058}
{"compound": "Fc1ccc(C2(Nc3ncc(-c4nnc(C(F)F)o4)cn3)CCN(c3ccccc3)CC2)cc1 [Example 17]", "IC50 (µM)": 0.16}

(P) O=C1CCCN1CC(Nc1ncc(-c2nnc(C(F)F)o2)cn1)c1ccc(F)cc1 (single isomer, unassigned) [177(−)]
(Q) FC(F)(F)c1nnc(-c2cnc(NC3(c4ccccc4)CC3)nc2)o1 [Example 1]
(R) FC(F)c1nnc(-c2cnc(NC3(c4ccc(Br)cc4)CC3)nc2)o1 [Example 47]
(S) CN(CC(Nc1ncc(-c2nnc(C(F)F)o2)cn1)c1ccc(OC(F)F)cc1F)S(C)(=O)=O (stereo not drawn) [145(+)]
(T) O=C(NCC(Nc1ncc(-c2nnc(C(F)F)o2)cn1)c1ccc(F)cc1)C1CC1 (single isomer, unassigned) [168(−)]
I would appreciate it if you could sort these 5 compounds by IC50, starting from the smallest number. # the answer lists labels in the order requested
R, S, P, Q, T
(R: 0.027 µM, S: 0.041 µM, P: 0.076 µM, Q: 0.21 µM, T: 0.75 µM)

(1) FC(F)c1nnc(-c2cnc(NC3(c4cccc(OC(F)(F)F)c4)CC3)nc2)o1 [Example 53]
(2) Fc1cc(OCC(F)(F)F)ccc1C1(Nc2ncc(-c3nnc(C(F)F)o3)cn2)CC1 [Example 84]
Lower value of IC50 belongs to which: 1 or 2 ? When you have decided, please share the label of that item.
1
(1: 0.023 µM, 2: 0.077 µM)

* * *

# protocol summary: Mouse Pharmacokinetics, oral single dose
# Type: in vivo, male Swiss Albino mice
# applied conditions: male, Swiss Albino, plasma, 5 mg/kg, formulation by footnote: a 20% CremEL in H20, b 1% CMC in water, c 2% DMSO, 0.2% Tween80, 97.8% of 1% CMC
assay endpoint: Cmax (ng/mL)

{"molecule": "CS(=O)(=O)NCC(Nc1ncc(-c2nnc(C(F)F)o2)cn1)c1ccc(F)cc1 (single isomer, unassigned) [38(+)]", "assay endpoint": "Cmax", "measurement": 1110}

(a) CS(=O)(=O)NCC(Nc1ncc(-c2nnc(C(F)F)o2)cn1)c1ccc(OC(F)F)cc1F (single isomer, unassigned) [116(+)]
(b) O=C(CCCCCCNC(=O)c1cnc(N(c2ccccc2)c2ccccc2)nc1)NO [Ricolinostat, ricolinostat, reference compound]
Quick check, higher Cmax between a and b ? When you have decided, please share the label of that item.
a
(a: 1010 ng/mL, b: 47 ng/mL)
